Below are IC50 measurements against Angiopoietin-1 receptor (Homo sapiens, UniProt Q02763) drawn from the literature.

Request body: readout IC50, system Angiopoietin-1 receptor (Homo sapiens, UniProt Q02763), query Nc1nc(Nc2cncc(Br)c2)nn1-c1ccccn1 . Return the value.
500 nM

Request body: readout IC50, system Angiopoietin-1 receptor (Homo sapiens, UniProt Q02763), query CCOC(=O)Cc1ccc(Nc2ncnc(Nc3cc(OC)c(OC)c(OC)c3)n2)cc1 . Return the value.
> 10200 nM

Request body: readout IC50, system Angiopoietin-1 receptor (Homo sapiens, UniProt Q02763), query C[C@H]1CN(c2nsnc2OCc2ccncc2)CCN1C(=O)Nc1cccc(C(F)(F)F)c1 . Return the value.
50 to 1000 nM

Request body: readout IC50, system Angiopoietin-1 receptor (Homo sapiens, UniProt Q02763), query O[C@@H]1CCCC[C@H]1Nc1nc(-c2cccnc2)nc2ccccc12 . Return the value.
≥ 10000 nM

Request body: readout IC50, system Angiopoietin-1 receptor (Homo sapiens, UniProt Q02763), query CC(C)Nc1nccc(COc2nsnc2N2CCN(C(=O)Nc3cc(C(F)(F)F)cc(C(F)(F)F)c3)CC2)n1 . Return the value.
50 to 1000 nM

Request body: readout IC50, system Angiopoietin-1 receptor (Homo sapiens, UniProt Q02763), query CN(C)CCNc1cc(COc2nsnc2N2CCN(C(=O)Nc3cc(C(F)(F)F)cc(C(F)(F)F)c3)CC2)ccn1 . Return the value.
50 to 1000 nM

Request body: readout IC50, system Angiopoietin-1 receptor (Homo sapiens, UniProt Q02763), query Cc1ccc(C(=O)Nc2cc(C(F)(F)F)ccc2N(C)CCCN(C)C)cc1Oc1ncccc1-c1cnco1 . Return the value.
≤ 500 nM

Request body: readout IC50, system Angiopoietin-1 receptor (Homo sapiens, UniProt Q02763), query COc1cc(Nc2ncnc(N3CCCC4CCCCC43)n2)cc(OC)c1OC (stereo not drawn) . Return the value.
1000 to 6010 nM
